# EXPERIMENT SUMMARY: photoluminescence quantum yield (fraction); solvent given as SMILES
# RUN PARAMETERS: in C1CCOC1
Threshold-based label: photoluminescence quantum yield under 0.3 gives MET, photoluminescence quantum yield not under 0.3 gives NOT MET.

# example entries with known answers
- COMPOUND: "CCn1c2ccccc2c2cc(C#Cc3cc(C#Cc4ccc5c(c4)c4ccccc4n5CC)nc(S(C)(=O)=O)n3)ccc21"
  CLASS NAME: "NOT MET"
- COMPOUND: "Cc1ccc(-c2c3ccc([nH]3)c3nc(c(-c4ccc(C#N)cc4)c4ccc([nH]4)c4ccc([nH]4)c(-c4ccc(C)cc4)c4ccc2o4)C=C3)cc1"
  CLASS NAME: "MET"
- COMPOUND: "COc1cc(/C=C/c2nc3ccccc3s2)c(OC)cc1/C=C/c1nc(C)nc(C)n1"
  CLASS NAME: "NOT MET"
- COMPOUND: "C1=Cc2ccccc2C(=Cc2ccc(C=C3c4ccccc4C=Cc4ccccc43)cc2)c2ccccc21"
  CLASS NAME: "MET"
- COMPOUND: "CN(C)CCN(Cc1c2ccccc2c(CN(CCN(C)C)c2ccc([N+](=O)[O-])cc2[N+](=O)[O-])c2ccccc12)c1ccc([N+](=O)[O-])cc1[N+](=O)[O-]"
  CLASS NAME: "MET"

Check if photoluminescence quantum yield falls below 0.3 for COc1ccc([C@@H]2C[C@](O)(c3ccccn3)C[C@](O)(c3ccccn3)[C@H]2C(=O)c2ccc(N(c3ccccc3)c3ccccc3)cc2)cc1 . NOT MET

Hello, I'm reviewing records and need to know if photoluminescence quantum yield of CSc1sc(C(=O)c2ccccc2)c2nn[nH]c(=O)c12 is below 0.3. Could you check? MET

I wonder whether CC1=CC(C)=[N+]2C1=C(c1ccc(N3CCCCC3)cc1)c1c(C)cc(C)n1[B-]2(F)F has photoluminescence quantum yield below 0.3. Can you tell? MET

###

# EXPERIMENT SUMMARY: photoluminescence quantum yield (fraction); solvent given as SMILES
# RUN PARAMETERS: in CC#N
PROPERTY LABEL: photoluminescence quantum yield
The response must contain the number and no unit.

Consider the following illustrative entries.
- CHEMICAL STRING: "O=C1c2ccccc2-c2ccccc21"
  photoluminescence quantum yield: 0.027
- CHEMICAL STRING: "COC(=O)c1nc2c(N(C)C)nc(N)nc2n1Cc1ccccc1"
  photoluminescence quantum yield: 0.83
- CHEMICAL STRING: "Cc1c2ccccc2c(C2=C3C=CC=[N+]3[B-](F)(F)n3cccc32)c2ccccc12"
  photoluminescence quantum yield: 0.001

Proceed to the following item.
Returns the measured photoluminescence quantum yield for the input compound. Input: Cc1ccc(-n2cccc2)cc1 0.4

###

# EXPERIMENT SUMMARY: photoluminescence quantum yield (fraction); solvent given as SMILES
# RUN PARAMETERS: in CCO
The following compounds are listed with their measured photoluminescence quantum yield values.
Give your answer as a number; write no unit.

Here's what some known entries look like.
- COMPOUND: "CN1C(=O)/C(=C/c2ccncc2)N=C1c1ccccc1"
  RECORDED NUMBER: 0.073
- COMPOUND: "CN(C)c1c2ccccc2cc2ccccc12"
  RECORDED NUMBER: 0.007
- COMPOUND: "CC(=O)N(Cc1ccccn1)c1c2ccccc2c2c3c(cccc13)C(=O)N(Cc1ccccn1)C2=O"
  RECORDED NUMBER: 0.35
- COMPOUND: "Cc1nc2c(cc3c4c(cccc42)C(=O)OC3=O)o1"
  RECORDED NUMBER: 0.073
- COMPOUND: "O=C1c2ccccc2-c2ccccc21"
  RECORDED NUMBER: 0.0009

Requested field: photoluminescence quantum yield. Item: CCOC(=O)c1ccccc1-c1c2ccc(=O)cc-2oc2cc(OC(=O)[C@H](CSCc3ccc(C)cc3)NC(=O)OC(C)(C)C)ccc12 0.043

Param item = Nc1cc2nc3cc(Cl)c(Cl)cc3nc2cc1N ; retrieve measured photoluminescence quantum yield. 0.1

Look up photoluminescence quantum yield for this compound: CCN(CC)c1ccc2cc3ccc(=[N+](CC)CC)cc-3oc2c1 0.95

Give the measured photoluminescence quantum yield of COc1cc(OC)cc(C(=O)OCc2c(C)c(=O)n3c(=O)c(C)c(C)n23)c1 . 0.638

Values from the Deep4Chem optical property database
